# Tested on: HT29 colon
# assay-procedure: NCI-60 one-dose screen, 48 h (100 = growth as untreated, 0 = no growth, -100 = all killed)
# condition-info: 10 µM unless noted
About 83,000 compounds went through this panel and 20% of them were active in at least one assay; those are over-represented in the sample as a whole.
Hi there, I'd appreciate the recorded growth for every entry that follows.
Numbers only, in %.

Solved cases below.
Query: Find the recorded growth belonging to "CO[C@H]1CC(=O)n2c3ccccc3c3c4c(c5c6ccccc6n1c5c32)C(=O)NC4=O" and report it.
Result: 26.3

Query: Repeat for the following compound: "C=C(C)[C@@H]1CC[C@]2(C)[C@H](CC=C3[C@@H]4CC(C)(C)CC[C@]4(CO)CC[C@]32C)[C@@]1(C)CCCN"
Result: -52.8

Query: Repeat for the following compound: CC1=CCC(OC(=O)C(C)(C)CC(O)(C(C)O)C(O)C2(C)C=CC(Cc3ccc(C(C)C)cc3)(C(C)C)CC2)(C(C)C)CC1 (stereo not drawn)
Result: 103

Query: Repeat for the following compound: "Cc1cccc(Oc2ccc(Nc3ncnc4ccc(NC(=O)CN5CCN(C)CC5)cc34)cc2Cl)c1"
Result: -30.1

Query: Repeat for the following compound: COC(=O)N1CC(Oc2ccccn2)C2CC1c1ccccc1O2 (stereo not drawn)
Result: 103

Query: Repeat for the following compound: "O=C(CSc1nnc(-c2cc(-c3ccccc3)nc3ccccc23)n1-c1ccccc1)Nc1ccc(C(=O)/C=C/c2ccc(Cl)cc2)cc1"
Result: 76.2

Query: Repeat for the following compound: "CN1C(=O)/C(=C/c2ccc(C(=O)Nc3ncc(Cc4cccc(Cl)c4)s3)cc2)SC1=S"
Result: 61.1

// next entry
Query: Find the recorded growth belonging to "Oc1c(CN2CCC(N3CCCCC3)CC2)cc(Cc2cc(CN3CCC(N4CCCCC4)CC3)c(O)c3ncccc23)c2cccnc12" and report it.
Result: 16
